Target: HPK1 (Homo sapiens)
Test: HPK1 kinase activity assay (ADP-Glo)
Conditions: HPK1 Kinase activity IC50 (nM), 1 nM HPK1, 10 μM ATP, 0.1 μg/μL MBP
property.name: IC50 (nM)
Numbers only, in nM.

Recorded IC50, per entry:
>>> reported_value("Cc1c[nH]c2ncc(-c3cc4c(c([C@@H]5CCCN5)c3)CN(C(=O)c3cnn(C(C)C)c3C(F)(F)F)CC4)cc12")
1.13
>>> reported_value("C[C@H](C#N)c1c[nH]c2ncc(-c3cc4c(c([C@@H]5CCCN5)c3)COCC4)cc12 (single isomer, unassigned)")
0.62

Ask | State IC50 (HPK1 (Homo sapiens)) of `CO[C@@H]1CCN(C(=O)N2CCc3cc(-c4cnc5[nH]cc(C)c5c4)cc([C@@H]4CCCN4)c3C2)C1` .
Reply | 0.26

----------
Molecular target: UniProt Q92918
Assay: SLP76 phosphorylation assay (intracellular HPK1 inhibitory activity, p-SLP76 Ser376 sandwich ELISA)
Conditions: p-SLP76 IC50(nM), Jurkat, Clone E6-1 cells; 1 h compound pre-incubation, anti-CD3 beads stimulation 20 min; SLP76 phosphorylation at S376
Sequence (Q92918 whole entry): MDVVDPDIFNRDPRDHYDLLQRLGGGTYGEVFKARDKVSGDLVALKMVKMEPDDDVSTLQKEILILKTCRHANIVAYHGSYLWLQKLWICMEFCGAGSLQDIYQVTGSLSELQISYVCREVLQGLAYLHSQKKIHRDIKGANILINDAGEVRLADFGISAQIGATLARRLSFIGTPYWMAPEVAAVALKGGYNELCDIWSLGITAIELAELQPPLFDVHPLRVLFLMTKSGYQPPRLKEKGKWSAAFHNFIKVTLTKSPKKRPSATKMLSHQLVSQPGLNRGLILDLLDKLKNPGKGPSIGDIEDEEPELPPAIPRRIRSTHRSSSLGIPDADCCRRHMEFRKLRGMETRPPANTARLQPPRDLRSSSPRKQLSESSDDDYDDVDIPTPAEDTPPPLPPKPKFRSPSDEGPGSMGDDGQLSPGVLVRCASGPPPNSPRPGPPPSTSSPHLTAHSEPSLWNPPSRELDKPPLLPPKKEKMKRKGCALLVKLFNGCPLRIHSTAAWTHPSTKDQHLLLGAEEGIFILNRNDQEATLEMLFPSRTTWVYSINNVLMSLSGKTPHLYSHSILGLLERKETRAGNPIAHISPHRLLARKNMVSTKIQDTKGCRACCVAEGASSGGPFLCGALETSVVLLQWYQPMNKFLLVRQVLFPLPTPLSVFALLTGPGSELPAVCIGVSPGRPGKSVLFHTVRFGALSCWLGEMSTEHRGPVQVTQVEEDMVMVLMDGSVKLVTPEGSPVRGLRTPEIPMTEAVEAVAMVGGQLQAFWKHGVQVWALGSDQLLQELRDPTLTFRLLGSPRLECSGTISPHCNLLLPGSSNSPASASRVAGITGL
Counter-ions that a name gives are not always drawn.
property.name: IC50

A selection of reference data follows.
>>> reported_value("COCC(=O)N1Cc2cc(-c3cnc4[nH]cc(C)c4c3)cc([C@@H]3CCCN3)c2C1 [Compound Z261, hydrochloride]")
"842 nM"
>>> reported_value("Cc1c[nH]c2ncc(-c3cc4c(c([C@@H]5CCCN5)c3)CN(C(=O)N3CCOC[C@@H]3C)CC4)cc12 [Compound Z358-1]")
"67.4 nM"
>>> reported_value("COc1cc(N2CCc3cc(-c4cnc5[nH]cc(C)c5c4)cc([C@@H]4CCCN4)c3C2)ccn1 [Compound Z344]")
"386 nM"
>>> reported_value("Cc1c[nH]c2ncc(-c3cc4c(c([C@@H]5CCCN5)c3)CN(c3ccncn3)CC4)cc12 [Compound Z315]")
"225 nM"
>>> reported_value("Cc1c[nH]c2ncc(-c3cc4c(c([C@@H]5CCCN5)c3)CN(C(=O)[C@H](O)c3ccccc3)CC4)cc12 [Compound Z289]")
"378 nM"

Below are 2 compounds. Give each one its IC50.
1. CO[C@@H]1CCN(C(=O)N2CCc3cc(-c4cnc5[nH]cc(C)c5c4)cc([C@@H]4CCCN4)c3C2)C1 [Compound Z357-2]
2. Cc1c[nH]c2ncc(-c3cc4c(c([C@@H]5CCCN5)c3)CN(C(=O)Nc3cn[nH]c3)C4)cc12 [Compound Z385]

Reply |
80.7 nM
3.3 nM

// for each compound in input: emit IC50
1. Cc1c[nH]c2ncc(-c3cc4c(c([C@@H]5CCCN5)c3)CN(C(=O)N3CC5CCC(C3)O5)CC4)cc12 [Compound Z389]
2. Cc1cc(C(=O)N2Cc3cc(-c4cnc5[nH]cc(C)c5c4)cc([C@@H]4CCCN4)c3C2)cc(C)n1 [Compound Z262, hydrochloride]

Reply |
1: 47.1 nM; 2: 627 nM

Quick request: IC50 for each listed item, please.
1. CC(C)(O)C(=O)N1CCc2cc(-c3cnc4[nH]cc(Cl)c4c3)cc([C@@H]3COCCN3)c2C1 [Compound Z418-1]
2. Cc1c[nH]c2ncc(-c3cc4c(c([C@@H]5CCCN5)c3)CCN(C(=O)[C@](C)(O)C(F)(F)F)C4)cc12 [Compound Z285-1]
3. Cc1c[nH]c2ncc(-c3cc4c(c([C@@H]5CCCN5)c3)CN(C(=O)c3cnn(C)c3)C4)cc12 [Compound Z368, hydrochloride]
4. CCn1cc(C(=O)N2CCc3cc(-c4cnc5[nH]cc(C)c5c4)cc([C@@H]4CCCN4)c3C2)cn1 [Compound Z335]
5. Cc1c[nH]c2ncc(-c3cc4c(c([C@@H]5CCCN5)c3)CN(C(=O)c3cccnc3)CC4)cc12 [Compound Z210]

Reply |
1. 61.3 nM
2. 239 nM
3. 417 nM
4. 170 nM
5. 227 nM

----------
Please respond with reported IC50 for every item in the list.
Molecular target: HPK1 (Homo sapiens)
Assay: HPK1 kinase activity assay (ADP-Glo)
Conditions: HPK1 Kinase activity IC50 (nM), 1 nM HPK1, 10 μM ATP, 0.1 μg/μL MBP
One number for each entry, in nM.

Report IC50 for each item below.
1. Cc1nn(C)cc1C(=O)N1CCc2cc(-c3cnc4[nH]cc(C)c4c3)cc([C@@H]3CCCN3)c2C1
2. Cc1c[nH]c2ncc(-c3cc4c(c([C@@H]5CCCN5)c3)CCN(C3CCOCC3)C4)cc12
3. Cc1c[nH]c2ncc(-c3cc4c(c([C@@H]5CCCN5)c3)CN(C(=O)Nc3cccnc3)C4)cc12
4. Cc1c[nH]c2ncc(-c3cc4c(c([C@@H]5CC6(CC6)CN5)c3)COCC4)cc12

Reply |
0.38
3.19
3.8
2.28

----------
Target: HPK1 (Homo sapiens)
Test: HPK1 kinase activity assay (ADP-Glo)
Conditions: HPK1 Kinase activity IC50 (nM), 1 nM HPK1, 10 μM ATP, 0.1 μg/μL MBP
property.name: IC50 (nM)
One number for each entry, in nM.

>>> reported_value("CCN1Cc2c(cc(-c3cnc4[nH]cc(C)c4c3)cc2[C@@H]2CCCN2)NC1=O")
0.8

Each of the following entries comes with a recorded value; kindly state IC50 for each.
1. Cc1c[nH]c2ncc(-c3cc4c(c([C@@H]5CCCN5)c3)CN(C(=O)OC3CC3)CC4)cc12
2. CC(C)c1c[nH]c2ncc(-c3cc([C@@H]4CCCN4)c4cnccc4c3)cc12 (single isomer, unassigned)
3. N#Cc1c[nH]c2ncc(-c3cc4c(c([C@@H]5CCCN5)c3)COCC4)cc12

Reply |
0.48
1.45
1.89

----------
Target: HPK1 (Homo sapiens, UniProt Q92918)
Assay: HPK1 kinase activity assay (ADP-Glo)
Conditions: HPK1 Kinase activity IC50 (nM), 1 nM HPK1, 10 μM ATP, 0.1 μg/μL MBP
Assignment: determine reported IC50 for the given compounds.
Answers are plain numbers, in nM.

>>> reported_value("Cc1c[nH]c2ncc(-c3cc4c(c([C@@H]5CCCN5)c3)CN(C(=O)N3CCO[C@H](C)C3)CC4)cc12")
0.36
>>> reported_value("CC(C)(O)C(=O)N1CCc2cc(-c3cnc4[nH]cc(Cl)c4c3)cc([C@@H]3COCCN3)c2C1")
0.19
>>> reported_value("CC(C)c1c[nH]c2ncc(-c3cc(C4CCCN4)c4cnccc4c3)cc12 (stereo not drawn)")
3.11
>>> reported_value("Cc1c[nH]c2ncc(-c3cc4c(c(CNCC5CC5)c3)COCC4)cc12")
3.55
>>> reported_value("Cc1c[nH]c2ncc(-c3cc4c(c([C@@H]5CCCN5)c3)CN(C(=O)[C@@H]3CCOC3)CC4)cc12")
0.42

Please go through the list and note IC50 for each compound.
1. Cc1c[nH]c2ncc(-c3cc4c(c([C@@H]5CCCN5)c3)CN(CC3CCOCC3)CC4)cc12
2. Cc1c[nH]c2ncc(-c3cc4c(c(CN5CCCC5)c3)COCC4)cc12
3. Cc1c[nH]c2ncc(-c3cc4c(c([C@@H]5CCCN5)c3)CN(C(=O)c3cnn(C5CC5)c3)CC4)cc12

Reply |
1.5
9.78
0.28

----------
Exercise: for every item that follows, state its recorded IC50.
Biological target: HPK1 (Homo sapiens)
Experiment: HPK1 kinase activity assay (ADP-Glo)
Conditions: HPK1 Kinase activity IC50 (nM), 1 nM HPK1, 10 μM ATP, 0.1 μg/μL MBP
Answers are plain numbers, in nM.

>>> reported_value("Cc1c[nH]c2ncc(-c3cc4c(c([C@@H]5CCCN5)c3)CN(C(=O)[C@@H](O)c3ccccc3)CC4)cc12")
0.77
>>> reported_value("Cc1c[nH]c2ncc(-c3cc4c(c([C@@H]5CCCN5)c3)COCC4)nc12")
0.53

Hi, could you look up IC50 for each item in my list?
1. Cc1c[nH]c2ncc(-c3cc4c(c([C@@H]5CCCN5)c3)CN(C(=O)N3CC5CCC(C3)O5)CC4)cc12
2. Cc1c[nH]c2ncc(-c3cc4c(c(C5CC(=O)N5)c3)COCC4)cc12 (stereo not drawn)
3. CC(=O)N1CCc2cc(-c3cnc4[nH]cc(C)c4c3)cc([C@@H]3COCCN3)c2C1 (single isomer, unassigned)
4. Cc1c[nH]c2ncc(-c3cc4c(c([C@@H]5CCCN5)c3)CN(C(=O)CC3CCOCC3)CC4)cc12
5. CCN(CC)Cc1cc(-c2cnc3[nH]cc(C)c3c2)cc2c1COCC2

Reply |
1. 0.21
2. 35.3
3. 1.06
4. 0.81
5. 26.9

----------
Target: UniProt:Q92918
Sequence (Q92918 1-346 limits assumed): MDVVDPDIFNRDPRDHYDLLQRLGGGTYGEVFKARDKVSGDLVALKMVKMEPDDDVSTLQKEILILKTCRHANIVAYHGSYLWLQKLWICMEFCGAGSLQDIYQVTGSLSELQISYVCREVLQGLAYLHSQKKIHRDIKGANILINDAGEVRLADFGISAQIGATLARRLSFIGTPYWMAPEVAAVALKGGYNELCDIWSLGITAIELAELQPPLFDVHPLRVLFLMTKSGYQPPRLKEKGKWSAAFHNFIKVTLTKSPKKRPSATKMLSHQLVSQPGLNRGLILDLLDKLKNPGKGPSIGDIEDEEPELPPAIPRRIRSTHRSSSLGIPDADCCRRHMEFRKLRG
Test: HPK1 kinase activity assay (ADP-Glo)
Settings: HPK1 Kinase activity IC50 (nM), 1 nM HPK1, 10 μM ATP, 0.1 μg/μL MBP
Structures can show the parent of a compound that is named as a salt.
I'd appreciate it if you could supply IC50 values for the items below.
Give bare numbers, in nM.

>>> reported_value("Cc1c[nH]c2ncc(-c3cc4c(c([C@@H]5CCCN5)c3)COCC4)cc12 (single isomer, unassigned)")
0.67
>>> reported_value("Cc1c[nH]c2ncc(-c3cc([C@@H]4CCCN4)c4ccccc4n3)cc12")
31.2
>>> reported_value("Cc1cc(N2CCc3cc(-c4cnc5[nH]cc(C)c5c4)cc([C@@H]4CCCN4)c3C2)ccn1 [Compound Z320, formate]")
0.73
>>> reported_value("CC(=O)N1CCc2cc(-c3cnc4[nH]cc(C)c4c3)cc([C@H]3COCCN3)c2C1 (single isomer, unassigned)")
90
>>> reported_value("Cc1c[nH]c2ncc(-c3cc4c(c([C@@H]5CCCN5)c3)CN(C(=O)Nc3nccs3)C4)cc12")
2.74

# per-item lookup of IC50; items listed below
1. Cc1c[nH]c2ncc(-c3cc([C@@H]4CCCN4)c4cnccc4c3)cc12 (single isomer, unassigned)
2. Cc1c[nH]c2ncc(-c3cc4c(c([C@@H]5CCCN5)c3)CCN(C(=O)C(C)(C)C)C4)cc12

Reply |
231
0.64
